Here, each record is paired with measured protein stability index data.
B1: RSPH3 (parent)
chain: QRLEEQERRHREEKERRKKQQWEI

- Variants of: B1
- Assay name: protein stability index of a GFP-peptide fusion (GPS, HEK-293T) (PSI 1-6); higher = more stable;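 note: lentivirally expressed fusions sorted by FACS into six bins by GFP to DsRed ratio, PSI derived from sequencing read proportions per bin multiplied by bin number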
- Experimental conditions: c terminus: a fixed tail appended

Consider the reported protein stability index for these variants:
QRLEEQERRHREEMERRKKQQWEI
4.25
QRLEEQERRHCEEKERRKKQQWEI
4.83
QRLEEQERRHREEKERDKKQQWEI
4.42
QRPEEQERRHREEKERRKKQQWEI
5
QRLEEQERRWREEKERRKKQQWEI
4.49

Here's the next entry for you.
protein stability index reading for "QRLEEQERRHREEKERRLKQQWEI" : 4.27

Values from the supplement of paper PMC10567573
